Test: basal RPMI8226 mitochondrial membrane potential changes, profiling panel, cell-based, JC-1 fluorescence, 24 h, 100 nL compound (AID 1169); also: test concentration not given here
Conditions: RPMI8226 myeloma, JC-1 mitochondrial potential fluorescence, higher = more signal
Threshold rule: z-score greater than or equal to 0.1 is Condition met; below that, Condition not met.

1. Cc1ccc2[nH]c3nc(CCCn4ccnc4-c4ccccc4)nnc3c2c1	Condition met
2. COC(=O)[C@@H]1CC[C@H](C)[C@@H](c2ccc(Br)cc2)N1C[C@@H](O)CN=[N+]=[N-]	Condition met
3. CO[C@H]1COC(=O)CCC[C@H](C)[C@@H](OC)COC(=O)CC=C[C@@H]1C	Condition not met
4. CC(=O)OC[C@H]1O[C@H](CC=NOCC[C@@H]2C=C[C@H](OC(C)=O)[C@@H](COC(C)=O)O2)C=C[C@@H]1OC(C)=O	Condition met
5. CCOC(=O)NN=C1C[C@@H](O)[C@@H](O)[C@@H]2[C@@H]3C(=O)N(C[C@@H]4CCCO4)C(=O)[C@@H]3CC[C@H]12	Condition not met
6. CO[C@H]1COC(=O)CC=C[C@@H](C)COC(=O)[C@H]2CCCN2C(=O)CC=C[C@H]1C	Condition met
7. CC(C)=CCCC(C)=CCON=C1C[C@@H](O)[C@@H](O)[C@@H]2[C@@H]3C(=O)N(Cc4ccc5c(c4)OCO5)C(=O)[C@@H]3CC[C@H]12	Condition not met
8. CCc1cc2c(nc1CC)CCN(CCC(C)=NOCC[C@@H]1C=C[C@H](OC(C)=O)[C@@H](COC(C)=O)O1)C2	Condition met
9. CCO[C@H](c1cc(OC)cc([N+](=O)[O-])c1OC)[C@H](C)[C@@H](OC)[C@H](C)C=CCC(=O)OC	Condition not met
10. CC(=O)OC[C@H]1O[C@H](CC=NO[C@@H](C)c2cn([C@H](CO)Cc3ccccc3)nn2)C=C[C@@H]1OC(C)=O	Condition met
11. CCOC(=O)[C@H](CC(C)C)NC(=O)CCC1CC(OC(=O)NCc2ccc3c(c2)OCO3)CC2(CCCC(COC(=O)NCCc3ccccc3OC)O2)O1 (stereo partly specified)	Condition not met
12. CC(CCN1CCCc2nc(C)c(C)cc21)=NO[C@H](C)c1cn([C@H](CO)Cc2ccccc2)nn1	Condition met
13. O=C1C=C[C@@H](O)[C@@H]2[C@@H]3C(=O)N(Cc4ccccc4)C(=O)[C@@H]3CC[C@@H]12	Condition not met
14. CC(=O)OC[C@H]1O[C@H](CC=NOC(C)CN2CCCCc3nc(C)c(C)cc32)C=C[C@@H]1OC(C)=O (stereo partly specified)	Condition not met
15. CCN1C(=O)[C@H]2[C@H]3[C@H](O)[C@H](O)CC(=NOC[C@@H](O)COCc4ccco4)[C@H]3CC[C@H]2C1=O	Condition met
16. CCCC[C@H]1CN2[C@@H](CC[C@@H](C)[C@@H]2c2ccc(Br)cc2)C(=O)O1	Condition not met
17. CC(CCC(=O)OC[C@H]1O[C@H](C#Cc2ccccc2)C=C[C@@H]1Oc1ccc(C)cc1)=NOC(C)CN1CCCc2nc(C)c(C)cc21 (stereo partly specified)	Condition not met
18. COC(=O)CC=C[C@@H](C)[C@@H](C=NOC(C)CN1CCCCc2nc(C)c(C)cc21)NS(=O)(=O)c1ccc(C)cc1 (stereo partly specified)	Condition not met
19. C[C@@H]1CC[C@@H](C(=O)O)N[C@H]1c1cccc(N2CCOCC2)c1	Condition not met
20. CO[C@@H]1C=CCC(=O)N[C@@H](C)C(=O)OC[C@@H](OC)[C@H](C)C=CCC(=O)OC[C@H]1C	Condition met
21. COC(=O)[C@H](C)NC(=O)CCC1CC(OC(=O)NCc2cccc3ccccc23)CC2(CCCC(COC(=O)NCc3ccccc3)O2)O1 (stereo partly specified)	Condition met
22. C[C@H]1CC[C@H]2C(=O)O[C@H](CO)CN2[C@@H]1c1ccc(Br)cc1	Condition met
23. COc1cccc([C@H]2Oc3ccc(OC)cc3C(=NO[C@@H](C)c3cc(-c4c(C)cc(C)cc4C)no3)[C@@H]2O)c1	Condition met
24. C=CC[C@@H]1C=C[C@H](ON=C2C[C@@H](O)[C@@H](O)[C@@H]3[C@@H]4C(=O)N(CC)C(=O)[C@@H]4CC[C@@H]23)[C@@H](CO)O1	Condition met
25. O=C1C=C[C@@H](O)[C@@H]2[C@@H]3C(=O)N(C4CCCCC4)C(=O)[C@@H]3CC[C@@H]12	Condition not met
26. CCOC(=O)CCN1C(=O)[C@H]2[C@H]3[C@H](O)[C@H](O)CC(=NOCC=C(C)CCC=C(C)C)[C@H]3CC[C@H]2C1=O	Condition met
27. CON=C(C)CCN1CCc2nc(-c3ccccc3)c(-c3ccccc3)cc2C1	Condition not met
28. COC(=O)[C@@H]1CC[C@H](C)[C@@H](c2ccc(C)cc2)N1C(=O)c1ccc(C=NOC[C@@H](O)[C@H]2O[C@@H]3OC(C)(C)O[C@@H]3[C@H]2O)cc1	Condition not met
29. CCOC(=O)[C@H](CC(C)C)NC(=O)CCC1CC(OC(=O)NCc2ccc3c(c2)OCO3)CC2(CCCC(COC(=O)NCc3ccccc3)O2)O1 (stereo partly specified)	Condition not met
30. CON=C(C)CCN1CCCCc2nc(C)c(C)cc21	Condition not met
31. CCOC(=O)[C@H](CC(C)C)NC(=O)CCC1CC(OC(=O)NCc2ccc3c(c2)OCO3)CC2(CCCC(COC(=O)NCCOC)O2)O1 (stereo partly specified)	Condition met

---

Experiment: PSAC antagonists in infected red cells, primary screen, cell-based, P. falciparum Indochina, OD700, 18 h (AID 1157)
Details: P. falciparum Indochina infected erythrocytes, osmotic lysis OD700, 18 h; higher = more signal, called active from +8 up or from −8 down
Activity calls are given as the source filed them.
recorded metric: z-score

1. CO[C@@H]1COC(=O)[C@@H]2CCCN2C(=O)[C@@H](C)COC(=O)CCC[C@H]1C	-2.21 (inactive)
2. CC(C)=NOC[C@@H](O)[C@H]1O[C@@H]2OC(C)(C)O[C@@H]2[C@H]1O	0.269 (inactive)
3. CCN(CC)CC(O)CN1CCCCc2nc(C)c(C)cc21 (stereo not drawn)	-1.55 (inactive)
4. CC(=O)OC[C@H]1O[C@H](CC=NOCC[C@@H]2C=C[C@H](OC(C)=O)[C@@H](COC(C)=O)O2)C=C[C@@H]1OC(C)=O	0.219 (inactive)
5. COC(=O)CC=C[C@@H](C)[C@@H](C=NOC(C)CN1CCCCc2nc(C)c(C)cc21)OC (stereo partly drawn)	0.441 (inactive)
6. CC(CCC(=O)OC[C@H]1O[C@H](C#Cc2ccccc2)C=C[C@@H]1Oc1ccc(C)cc1)=NOC(C)CN1CCCc2nc(C)c(C)cc21 (stereo partly drawn)	0.735 (inactive)
7. CC(C)[C@@H](OCc1ccccc1)[C@H](C)C=NO[C@H](C)c1cn([C@@H]2COC[C@H]2O)nn1	0.172 (inactive)
8. O=C1[C@H]2[C@H]3[C@H](O)[C@H](O)CC(=NO[C@@H]4O[C@H](CO)[C@@H](O)[C@H](O)[C@H]4O)[C@@H]3CC[C@H]2C(=O)N1c1cccc(Oc2ccccc2)c1	0.0606 (inactive)

---

Assay: binders of probe aHhip on microarray, primary screen, stem cell growth factor project, biochemical, small-molecule microarray, fluorescence 635/667 (AID 1087);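 also: score merges spot fluorescence at 667nm with spot signal to noise ratio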
Settings: higher = more signal
recorded metric: composite z-score

1. CCN1C(=O)[C@H]2[C@H]3[C@H](O)[C@H](O)CC(=NOCC(C)C)[C@H]3CC[C@H]2C1=O	-0.079
2. COC(=O)CC=C[C@@H](C)[C@@H](C=NOC[C@@H](C)[C@H](OCc1ccccc1)C(C)C)OC	-0.395
3. CCOC(=O)[C@H](CC(C)C)NC(=O)CCC1CC(OC(=O)NCc2ccc3c(c2)OCO3)CC2(CCCC(COC(=O)NCCOc3ccccc3)O2)O1 (some centres not stated)	0.276
4. CCN1C(=O)[C@H]2[C@H]3[C@H](O)[C@H](O)CC(=NO[C@H](C)c4cn([C@@H]5COC[C@H]5O)nn4)[C@@H]3CC[C@H]2C1=O	-0.238
5. CC(CCC(=O)OC[C@H]1O[C@H](C#Cc2ccccc2)C=C[C@@H]1Oc1ccc(C)cc1)=NO[C@H](C)c1cn([C@@H]2COC[C@H]2O)nn1	-0.134
6. C=C(C)C(=O)OC[C@H]1CN2[C@@H](CC[C@@H](C)[C@@H]2c2ccc(Br)cc2)C(=O)O1	-0.0618
7. CC(=O)OC[C@H]1O[C@H](CC=NOC(C)CN2CCCc3nc(C)c(C)cc32)C=C[C@@H]1OC(C)=O (some centres not stated)	0.0637
8. CC(C)CON=C1C[C@@H](O)[C@@H](O)[C@@H]2[C@@H]3C(=O)N(c4ccc(F)cc4F)C(=O)[C@@H]3CC[C@@H]12	-0.0994
9. CCc1cc2c(nc1CC)CCN(CCC(C)=NOCC[C@@H]1C=C[C@H](OC(C)=O)[C@@H](COC(C)=O)O1)C2	0.0722
10. CC(C)=CCCC(C)=CCON=C1[C@H]2CCn3c(=O)n(-c4ccccc4)c(=O)n3[C@H]2[C@H](O)[C@@H]2O[C@H]12	-0.0645
11. CON=C(C)CCN1CCc2nc(-c3ccccc3)c(-c3ccccc3)cc2C1	-0.201
12. CC(=O)OC[C@H]1O[C@H](CC=NOC(C)CN2CCCCc3nc(C)c(C)cc32)C=C[C@@H]1OC(C)=O (some centres not stated)	0.158
